System: Echinochloa oryzoides (Ard.) Fritsch.
experiment-notes: Preemergence weed control under flooded paddy conditions, ECHORC (Watergrass (Calif.)); note: meaning of each grade not given here
Format: in vivo
particulars: Rate 0.0620 kg/ha; preemergence, flooded paddy; rated 3-4 weeks after treatment
property-name: herbicidal effect rating, ECHORC
# respond with the number and nothing more

Take a look at these entries with their results.
COCCCOCCCOC(=O)COc1ccc(C)cc1-c1nsc2ccc(-n3c(=O)cc(C(F)(F)F)n(C)c3=O)cc12    8.0
C=CCOC(=O)/C=C/c1nsc2ccc(-n3c(=O)cc(C(F)(F)F)n(C)c3=O)cc12    3.0
Cc1ccc(OCC(=O)C(C)(C)C)c(-c2nsc3ccc(-n4c(=O)cc(C(F)(F)F)n(C)c4=O)cc23)c1    3.4
CC(C)S(=O)(=O)NC(=O)COc1ccccc1-c1nsc2ccc(-n3c(=O)cc(C(F)(F)F)n(C)c3=O)cc12    2.3

Entry Cn1c(C(F)(F)F)cc(=O)n(-c2ccc3snc(-c4ccccc4OCC(N)=O)c3c2)c1=O [Example 563] ; herbicidal effect rating, ECHORC = 5.1

response.value for Cc1ccc(OCC(=O)c2ccc(Cl)cc2)c(-c2nsc3ccc(-n4c(=O)cc(C(F)(F)F)n(C)c4=O)cc23)c1 (field: herbicidal effect rating, ECHORC) = 3.4

Entry COCC(C)OC(=O)C(C)(C)Oc1ccc(C)cc1-c1nsc2ccc(-n3c(=O)cc(C(F)(F)F)n(C)c3=O)cc12 (stereo not shown) ; herbicidal effect rating, ECHORC = 9.0
